# method_summary: Serum concentration after 28 days of oral dosing in male OCI-LY3 tumor-bearing NSG mice
# Type: in vivo
# reported_conditions: mouse, 10 mg/kg BID PO 28 days, 1 h post last dose, mean
endpoint: concentration at 1 h (µg/mL)
Report as a plain number; the unit µg/mL is understood.

Tell me concentration at 1 h reported for O=C(Nc1ccnc(C(F)(F)F)c1)c1cnn(-c2cccc3c(=O)[nH]ccc23)c1C(F)(F)F [Compound A]
5.08

----------
# method_summary: FIH study 67856633LYM1001 plasma pharmacokinetics
# Assay type: in vivo, human
# reported_conditions: human, plasma, oral, Cycle 2 Day 1, cohort 8 × 50 mg > 6 × 50 mg, Subject 100070 excluded; mean; read-out: AUCτ
endpoint: AUC (µg·h/mL)
Lab book: enter the figure in µg·h/mL, no units written.

State its AUC for this compound: O=C(Nc1ccnc(C(F)(F)F)c1)c1cnn(-c2cccc3c(=O)[nH]ccc23)c1C(F)(F)F
1700

----------
# method_summary: 14-day oral toxicity study toxicokinetics in Sprague-Dawley rats
# Assay type: in vivo
# reported_conditions: female, rat, plasma, 1000 mg/kg/day, female, Day 13, 1,000 mg/kg/day, mean, read-out: AUC0-24 h
# Protocol: Repeated-dose PK (toxicokinetics) were obtained as part of the repeated oral dose toleration toxicity studies in rats and dogs. There was no further increase in the daily exposure parameters at 1,000 mg/kg relative to those from 200 mg/kg/day. There was no effect of gender on exposure and there was no increase in daily exposure parameters on Day 14 relative to those observed after the first dose.
endpoint: AUC(0-t) (ng·h/mL)
Write the number in ng·h/mL without appending the unit.

Look up and report measured AUC(0-t) for this entry: O=C(Nc1ccnc(C(F)(F)F)c1)c1cnn(-c2cccc3c(=O)[nH]ccc23)c1C(F)(F)F
83200

----------
# method_summary: Preliminary food effect assessment at steady state
# Format: in vivo, human
# reported_conditions: human, plasma, oral, 100 mg, 2 × 50 mg, fasted condition, steady state; N = 2
endpoint: AUC (µg·h/mL)
Give just the number in µg·h/mL; leave the unit off.

Complete the entry with AUC for O=C(Nc1ccnc(C(F)(F)F)c1)c1cnn(-c2cccc3c(=O)[nH]ccc23)c1C(F)(F)F [Compound A]
313

----------
# method_summary: Single oral dose plasma PK in fasted dogs
# Type: in vivo, dog
# reported_conditions: female, beagle, dog, plasma, po, 280 mg/kg, 2F, 280 mg/kg PO, PEG400/PVP VA 90:10 solution, Study 7; median
endpoint: Tmax (h)
I only need the number, in h, no unit after it.

Report Tmax, nothing else, for this molecule: O=C(Nc1ccnc(C(F)(F)F)c1)c1cnn(-c2cccc3c(=O)[nH]ccc23)c1C(F)(F)F [Compound A]
24

----------
# method_summary: Single oral dose plasma PK in fasted dogs
# Type: in vivo, dog
# reported_conditions: male, beagle, dog, plasma, po, 5 mg/kg, 3M (N = 2 used), 5 mg/kg PO, 100% PEG400 solution, Study 1
endpoint: AUC(0-inf)
Answer as a quantity: numeral, then unit.

State, in one line, measured AUC(0-inf) of O=C(Nc1ccnc(C(F)(F)F)c1)c1cnn(-c2cccc3c(=O)[nH]ccc23)c1C(F)(F)F [Compound A]
146 µg·h/mL

----------
# method_summary: Single IV dose plasma PK
# Type: in vivo, monkey
# reported_conditions: male, plasma; Monkey, cynomolgus, 3M, 1 mg/kg IV in 70% PEG400; mean
endpoint: half-life (h)
Kindly provide the numeric value in h only, without the unit symbol.

Report half-life for O=C(Nc1ccnc(C(F)(F)F)c1)c1cnn(-c2cccc3c(=O)[nH]ccc23)c1C(F)(F)F [Compound A]
11.9
